The reported measurements were obtained from PubChem BioAssay (NCI).

Test system: HCT-15 colon
Experiment: NCI tumour cell line growth inhibition, 48 h
observed-property: TGI

Take a look at these entries with their results.
compound	reported-result
COc1cccc(/C=C/C(=O)c2cc3c(N)c(C(=O)Nc4ccccc4C)sc3nc2C)c1	1.87 µM
CC[C@@H]1CC[C@@H]2[C@H](CC[C@]3(C)[C@@H](O)CC[C@@H]23)[C@H]1C(=O)O	> 100 µM
COc1c(C2CC(=O)Nc3c2cnn3Cc2ccco2)cc2c(c1OC)OCO2 (stereo not given)	> 100 µM

TGI lookup needed for C=C1CCC2C(/C=C(\C)CCC1O)OC(=O)C2C (stereo not given) , thanks. > 100 µM

TGI lookup needed for `Cc1cc2c(c(C(=O)NCCC(=O)O)c1)Oc1c(cc(C)cc1C(=O)NCCC(=O)O)S2` , thanks. > 100 µM
